Target: CD63 on cells (human) (UniProt P08962)
Sequence (P08962 2-238): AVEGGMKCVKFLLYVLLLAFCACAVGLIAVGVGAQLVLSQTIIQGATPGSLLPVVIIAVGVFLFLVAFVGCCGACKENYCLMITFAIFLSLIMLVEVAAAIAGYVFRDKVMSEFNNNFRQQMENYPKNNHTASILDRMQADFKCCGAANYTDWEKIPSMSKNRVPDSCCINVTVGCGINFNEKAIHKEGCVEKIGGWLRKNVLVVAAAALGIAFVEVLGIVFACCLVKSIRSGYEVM
Procedure text: cell-based or functional assay
Each entry below lists one item and its recorded IC50 of cytotoxicity, HCC1954 cells (CellTiter-GLO, 4 days) value.
Respond with the bare value in µg/mL.

### Prompt Need IC50 of cytotoxicity, HCC1954 cells (CellTiter-GLO, 4 days), item bsCD63xb12-Duo3 with CD63 variant LV49H (bispecific antibody, part only; not given: b12 control arm, V domains shown, part only) VH: EVQLQQSGPELVKPGASVKMSCKASGYTFTSYVMHWVRQTPGQGLEWIGYITPYNDGTKYNEKFKGKATLTSDKSSSTAYMELSSLTSEDSAVYYCVGGDNYYYAMDYWGQGTSVTVSAA VL: NIMVTQSPSSLAVSAGEKVTMSCKSSQSHLYSSNQKNYLAWYQQKPGQSPKLLIYWASTRVSGVPDRFTGSGSGTDFTLTISRVQAEDLAVYYCHQYFSSFTFGSGTKLEIKRT
### Response 1.65

### Prompt Can you handle bsHER2xCD63-Duo3 with CD63 variant Y127 (bispecific antibody, part only; not given: HER2 arm (IgG1-153) VH and VL, V domains shown, part only) VH: EVQLQQSGPELVKPGASVKMSCKASGYTFTSYVMHWVRQTPGQGLEWIGYITPYNDGTKYNEKFKGKATLTSDKSSSTAYMELSSLTSEDSAVYYCVGGDNYYYAMDHWGQGTSVTVSAA VL: NIMVTQSPSSLAVSAGEKVTMSCKSSQSVLYSSNQKNYLAWYQQKPGQSPKLLIYWASTRVSGVPDRFTGSGSGTDFTLTISRVQAEDLAVYYCHQYFSSFTFGSGTKLEIKRT next?
### Response 0.017

### Prompt # iterate: bsHER2xCD63N74H-Duo3 (bispecific antibody, part only; not given: HER2 arm, V domains shown, part only) VH: EVQLQQSGPELVKPGASVKMSCKASGYTFTSYVMHWVRQTPGQGLEWIGYITPYHDGTKYNEKFKGKATLTSDKSSSTAYMELSSLTSEDSAVYYCVGGDNYYYAMDYWGQGTSVTVSAA VL: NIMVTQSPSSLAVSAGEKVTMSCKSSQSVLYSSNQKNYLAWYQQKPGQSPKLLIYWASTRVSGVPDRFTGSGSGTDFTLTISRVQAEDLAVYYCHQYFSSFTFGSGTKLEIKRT
### Response 0.017

### Prompt One more binder: bsCD63xb12-Duo3 with CD63 variant Y79H (bispecific antibody, part only; not given: b12 control arm, V domains shown, part only) VH: EVQLQQSGPELVKPGASVKMSCKASGYTFTSYVMHWVRQTPGQGLEWIGYITPYNDGTKHNEKFKGKATLTSDKSSSTAYMELSSLTSEDSAVYYCVGGDNYYYAMDYWGQGTSVTVSAA VL: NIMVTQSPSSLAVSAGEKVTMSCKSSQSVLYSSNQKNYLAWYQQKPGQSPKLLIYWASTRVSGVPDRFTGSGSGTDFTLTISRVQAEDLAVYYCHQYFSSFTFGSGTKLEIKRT
### Response 0.42

### Prompt Queued: bsHER2xCD63-Duo3 with CD63 variant Y46 (bispecific antibody, part only; not given: HER2 arm (IgG1-153) VH and VL, V domains shown, part only) VH: EVQLQQSGPELVKPGASVKMSCKASGHTFTSYVMHWVRQTPGQGLEWIGYITPYNDGTKYNEKFKGKATLTSDKSSSTAYMELSSLTSEDSAVYYCVGGDNYYYAMDYWGQGTSVTVSAA VL: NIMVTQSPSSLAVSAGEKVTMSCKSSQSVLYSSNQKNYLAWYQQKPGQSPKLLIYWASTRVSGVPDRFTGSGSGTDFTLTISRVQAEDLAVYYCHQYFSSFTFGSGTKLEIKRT
### Response 0.016
